Assay: TAMU_PeakParms_SingleDonor1434_Chronotropy: Texas A&M University (TAMU) 1.5-hr Human Induced Pluripotent Stem Cell (iPSC)-derived Cardiomyocytes Calcium (Ca+2) Flux Assay for Cardiotoxicity: Chronotropy (changes in peak frequency) (AID 2284217)
Settings: actives raise or lower the signal
The source made the active and inactive calls. How the source made its calls: active means hit-call score of the fitted dose curve at least 0.9, where 1 is the maximum; inactive means score below 0.9.
Outcomes you can answer with include only these: active, inactive

Prompt: Dear colleague, could you share the recorded outcome for CCCOC(=O)c1cc(O)c(O)c(O)c1 when you have a moment?
Completion: active

Prompt: Per the assay record, what outcome was assigned to CC(C)(c1cc(Br)c(O)c(Br)c1)c1cc(Br)c(O)c(Br)c1 ?
Completion: inactive

Prompt: // outcome(item) with item = O=C1O[C@H]([C@@H](O)CO)C(O)=C1O
Completion: inactive

Prompt: Short answer needed: outcome of this test for c1ccc2ccccc2c1 ?
Completion: active

* * *

Biological target: Muscarinic acetylcholine receptor M5 (Homo sapiens) (UniProt P08912)
Sequence (P08912 whole entry, looked up): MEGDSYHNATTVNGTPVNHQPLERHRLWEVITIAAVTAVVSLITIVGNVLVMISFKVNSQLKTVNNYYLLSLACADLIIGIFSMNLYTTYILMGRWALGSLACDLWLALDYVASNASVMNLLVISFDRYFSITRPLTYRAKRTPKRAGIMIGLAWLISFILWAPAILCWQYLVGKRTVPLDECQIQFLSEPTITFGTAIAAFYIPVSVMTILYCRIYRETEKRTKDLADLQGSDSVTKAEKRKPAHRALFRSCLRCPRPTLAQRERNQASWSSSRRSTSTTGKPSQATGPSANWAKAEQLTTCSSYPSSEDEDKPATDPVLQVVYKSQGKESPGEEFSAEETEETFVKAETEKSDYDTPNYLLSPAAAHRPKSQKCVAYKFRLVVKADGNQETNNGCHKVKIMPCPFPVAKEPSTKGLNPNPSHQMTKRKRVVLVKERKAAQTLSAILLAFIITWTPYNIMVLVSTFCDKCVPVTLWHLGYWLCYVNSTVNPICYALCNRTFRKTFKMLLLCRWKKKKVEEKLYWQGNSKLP
Assay: NVS_GPCR_hM5: NovaScreen (NVS) G Protein-Coupled Receptor Assay for human Muscarinic, M5 Receptor (AID 2283275)
Calls of active or inactive are those of the source. The calls were made as follows: active = hit-call score of the fitted dose curve at least 0.9, where 1 is the maximum; inconclusive = response in the unintended direction; inactive = score below 0.9.
endpoint name: AC50

Please fill in: AC50 reported for CCN(CC)C(=O)c1cc(S(=O)(=O)Cc2ccccc2)c(N2CCC(c3ccccc3)CC2)cc1N(CC)CCN(C)C = 6.24 µM (active)

Lab note: c1ccc(C[n+]2cccc3ccccc32)cc1 gave AC50 of 11.8 µM (active)

AC50 measured on CCCCCCCCCCCC[N+](C)(C)C = 1.93 µM (active)

The reported AC50 of the compound CCN(Cc1cccnc1)C(=O)c1cccc(Cl)c1[C@]1(C)C(=O)N(Cc2ccc(OC)cc2OC)c2ccc(Cl)cc21 was 4.06 µM (active)

Kindly note the recorded AC50 for O=C1c2ccccc2C(=O)N1CCc1noc(-c2ccc(CN3CCCCCC3)s2)n1 , which is 7.99 µM (active)

Lab note: COc1ccc2cc(S(=O)(=O)N[C@H](CC(=O)N[C@H](Cc3ccc(CN4[C@H](C)CCC[C@@H]4C)cc3)C(=O)N(C)C(C)C)c3ccc4c(c3)OCO4)ccc2c1 gave AC50 of 4.37 µM (active)

The reported value for CN(C)C(=O)C1(N2CCCCC2)CCN(CC[C@@]2(c3ccc(Cl)c(Cl)c3)CN(C(=O)c3ccccc3)CCO2)CC1 in terms of AC50 is 6.44 µM (active)

Kindly note the recorded AC50 for Cc1occc1C(=O)Nc1ccc(C(=O)N2CCC(F)(F)/C(=C\C(=O)N3CCC(N4CCCCC4)CC3)c3ccccc32)cc1 , which is 5.91 µM (active)

* * *

Experiment: ATG_VDRE_CIS: Attagene CIS-FACTORIAL HepG2 Assay for human Vitamin D Receptor Element (VDRE) (AID 2282968)
Conditions: HepG2 VDRE cis-reporter transcription, actives raise or lower the signal
The source made the active and inactive calls. How the source made its calls: active means hit-call score of the fitted dose curve at least 0.9, where 1 is the maximum; inactive means score below 0.9.
Choose the fitting class; nothing outside active, inactive is accepted.

Prompt: What call does the record list for CC(C)(C)c1csc(-c2cc3cc(OCc4ccccc4CC(=O)O)ccc3o2)n1 ?
Completion: active

Prompt: Could you kindly confirm the outcome this assay logged for c1ccc2ccccc2c1 ?
Completion: inactive

Prompt: Which outcome was entered for the molecule CCOC(=O)O[C@H](C)OC(=O)c1ccc2c(c1)cc(C(=O)NC1CCN(C(C)C)CC1)n2Cc1cc(-c2ccc(Cl)s2)on1 in this test?
Completion: inactive

Prompt: Recorded call for CCN(Cc1cccnc1)C(=O)c1cccc(Cl)c1[C@]1(C)C(=O)N(Cc2ccc(OC)cc2OC)c2ccc(Cl)cc21 ?
Completion: active

Prompt: Dear colleague, could you share the recorded outcome for Clc1ccccc1C(c1ccccc1)(c1ccccc1)n1ccnc1 when you have a moment?
Completion: active

* * *

Read-out: Interferon-gamma inducible Protein 10 (IP10), CXCL10 (gene 3627)
Test: BSK_BE3C_IP10: BioMAP Diversity Plus: BE3C Assay for Interferon-gamma inducible Protein 10 (IP10) Biomarker Activity (AID 2283034)
Conditions: primary human bronchial epithelial cells; actives raise or lower the signal
The source made the active and inactive calls. Rule for the calls: active = hit-call score of the fitted dose curve at least 0.9, where 1 is the maximum; inactive = score below 0.9.
Hi! Could you answer with just one of these? active, inactive

Prompt: Recorded call for COc1cc(C(=O)NC2CCN(C)CC2)ccc1Nc1ncc2c(n1)N(C1CCCC1)CC(F)(F)C(=O)N2C ?
Completion: active

Prompt: Could you please tell me the result logged for NC(=O)c1nc(-c2cccc(-c3cc(F)ccc3OCC(F)(F)C(F)(F)F)c2)n[nH]1 in this assay?
Completion: active

Prompt: Outcome? CCCOC(=O)c1cc(O)c(O)c(O)c1
Completion: inactive

Prompt: Tell me the assay call for O=C(Nc1ccc(Cl)cc1)Nc1ccc(Cl)c(Cl)c1 please.
Completion: active

Prompt: Please share the test call associated with CC(C)(C)c1csc(-c2cc3cc(OCc4ccccc4CC(=O)O)ccc3o2)n1 .
Completion: active

Prompt: Please share the test call associated with CCCCCCCCOc1ccc(C(=O)c2ccccc2)c(O)c1 .
Completion: inactive

Prompt: Field: outcome | Entry: Clc1ccccc1C(c1ccccc1)(c1ccccc1)n1ccnc1
Completion: active

Prompt: Called result for Cc1cc2c(cc1C(F)(F)F)N(C(=O)Nc1ccc(Oc3cccnc3C)nc1)CC2
Completion: active

Prompt: Name the outcome recorded for O=C(O)Cn1c(=O)n(Cc2ccc(Br)cc2F)c(=O)c2ccc(Cl)cc21 in the assay.
Completion: inactive

Prompt: So what was the verdict on O=C(O)c1ccccc1-n1cc(C(=O)O)c(=O)c2cc(Nc3c(F)cc(F)cc3Cl)c(Cl)cc21 in this test?
Completion: inactive

Prompt: Please let me know the test result on file for CC(C)(c1cc(Br)c(O)c(Br)c1)c1cc(Br)c(O)c(Br)c1 .
Completion: active

Prompt: Given CCCCOC(=O)CC(CC(=O)OCCCC)(OC(C)=O)C(=O)OCCCC , state the outcome it received in this test.
Completion: inactive

Prompt: For this compound, state the assay outcome: COCC(C)OCC(C)OCC(C)O (stereo not given)
Completion: inactive

Prompt: Could you please tell me the result logged for O=C1c2ccccc2C(=O)N1CCc1noc(-c2ccc(CN3CCCCCC3)s2)n1 in this assay?
Completion: inactive

Prompt: Recorded test outcome, item Cc1ccc(C(C)C)cc1
Completion: inactive

* * *

Assay: ACEA_AR_agonist_AUC_viability: ACEA Biosciences xCELLigence Real-Time Cell Analysis on Androgen Receptor Agonism for Viability (AID 2283775)
Method: ACEA_AR_agonist is a cell-based, single-readout assay that uses 22Rv1, a human prostate cancer cell line, with measurements taken at 80 hours after chemical dosing in a 384-well plate, although TO5 and TO6 (mc0.srcf) used a 96-well plate. Differences in plate size can be ignored given data normalization.ACEA_AR_80hr is one of two assay component(s) measured or calculated from the ACEA_AR assay. […]
Results filed as inconclusive are left out. Active and inactive are the calls of the source. Rule for the calls: active = hit-call score of the fitted dose curve at least 0.9, where 1 is the maximum; inconclusive = response in the unintended direction; inactive = score below 0.9.
Field 'call' accepts active, inactive

Prompt: Fill in: this test's call for CCCCCCCCOc1ccc(C(=O)c2ccccc2)c(O)c1 is ___
Completion: active

Prompt: Check the results log: what was the call for O=C(OCCCCCCOC(=O)c1ccccc1)c1ccccc1 ?
Completion: active

Prompt: Given Cc1cc(F)ccc1-c1cc(N2CC[C@@H](O)[C@H]2CO)ncc1N(C)C(=O)C(C)(C)c1cc(C(F)(F)F)cc(C(F)(F)F)c1 , state the outcome it received in this test.
Completion: active

Prompt: Hi, sorry to bother you, what did the test record for CCCCCCCCOC(=O)c1cc(O)c(O)c(O)c1 ?
Completion: active

Prompt: State the result this test recorded for CCCCCCCCCC(=O)O .
Completion: inactive

Prompt: Fill in: this test's call for O=c1[nH]sc2ccccc12 is ___
Completion: active

Prompt: Status in this test for C[C@]12CC[C@@H]3c4ccc(O)cc4CC[C@H]3[C@@H]1CCC2=O ?
Completion: inactive

Prompt: Which result was noted for this compound in the test: NCc1cccc(C2CCN(C(=O)c3ccc(C#Cc4ccccc4F)o3)CC2)c1
Completion: active

Prompt: Per the records of this test, what outcome belongs to COc1cc(C(=O)NC2CCN(C)CC2)ccc1Nc1ncc2c(n1)N(C1CCCC1)CC(F)(F)C(=O)N2C ?
Completion: active

Prompt: What was the test verdict on CCN(Cc1cccnc1)C(=O)c1cccc(Cl)c1[C@]1(C)C(=O)N(Cc2ccc(OC)cc2OC)c2ccc(Cl)cc21 ?
Completion: active

Prompt: What classification did CN(C[C@@H](CC[N+]12CCC(C3CCCCC3)(CC1)CC2)c1ccc(Cl)c(Cl)c1)C(=O)c1cc(C(F)(F)F)cc(C(F)(F)F)c1 end up with in this test?
Completion: active

Prompt: How did this test come out for Cc1cccc2ccccc12 ?
Completion: inactive

Prompt: Each compound tested received a call. Report the one for CN(C)C(=O)C1(N2CCCCC2)CCN(CC[C@@]2(c3ccc(Cl)c(Cl)c3)CN(C(=O)c3ccccc3)CCO2)CC1 .
Completion: active

Prompt: Look up the recorded call for CC(C)(C)c1cc(/C=C2\SC(N)=NC2=O)cc(C(C)(C)C)c1O in this test.
Completion: active

Prompt: Test call, this compound: O=C1c2ccccc2C(=O)N1CCc1noc(-c2ccc(CN3CCCCCC3)s2)n1
Completion: active

Prompt: Which outcome did this test record for the compound CC(C)(O)c1ccc(CNC(=O)c2cccnc2Oc2ccc3nonc3c2)cc1 ?
Completion: inactive

Prompt: // return assay outcome for O=C(O)c1ccccc1-n1cc(C(=O)O)c(=O)c2cc(Nc3c(F)cc(F)cc3Cl)c(Cl)cc21
Completion: inactive

Prompt: In this assay, the call recorded for Cc1ncc(CO)c(CO)c1O was what?
Completion: inactive
